Biological target: fMet-Leu-Phe receptor (Homo sapiens, UniProt P21462)
Sequence (P21462 whole entry): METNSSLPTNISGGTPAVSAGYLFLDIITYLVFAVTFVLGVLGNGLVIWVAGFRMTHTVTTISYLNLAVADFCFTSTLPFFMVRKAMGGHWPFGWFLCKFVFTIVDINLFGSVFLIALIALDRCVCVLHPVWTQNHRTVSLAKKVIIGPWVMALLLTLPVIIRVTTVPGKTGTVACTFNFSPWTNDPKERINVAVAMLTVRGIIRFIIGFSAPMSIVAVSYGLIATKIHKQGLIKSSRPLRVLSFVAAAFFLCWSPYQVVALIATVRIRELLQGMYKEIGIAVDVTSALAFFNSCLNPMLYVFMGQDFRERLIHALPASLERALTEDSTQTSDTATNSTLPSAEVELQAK
Test: Inhibitory activity against human formylpeptide receptor (FPR) of human leukemia HL-60 cells
Type: cell-based
Measurement kind: pIC50
Would you please state pIC50, meaning minus log10 of the concentration in mol/L, as a bare number?

Write down measured pIC50 (fMet-Leu-Phe receptor (Homo sapiens, UniProt P21462)) for this compound. `C/C=C/C[C@@H](C)[C@@H](O)[C@H]1C(=O)N[C@@H]([C@@H](C)O)C(=O)N(C)CC(=O)N(C)[C@@H](CC(C)C)C(=O)N[C@@H](CC(C)C)C(=O)N(C)[C@@H](CC(C)C)C(=O)N[C@@H](C)C(=O)N[C@H](C)C(=O)N(C)[C@@H](CC(C)C)C(=O)N[C@@H](CC(C)C)C(=O)N(C)[C@@H](C(C)C)C(=O)N1C`
6.23

====

Target: UniProt:P21462
Assay: Inhibitory activity against human formylpeptide receptor (FPR) of human leukemia HL-60 cells
Type: cell-based
Conditions: hl-60
Measurement kind: IC50

Check the records and state IC50 for C/C=C/C[C@@H](C)[C@@H](O)C1NC(=O)[C@H](C(C)C)N(C)C(=O)[C@H](CC(C)C)N(C)C(=O)[C@H](CC(C)C)N(C)C(=O)[C@@H](C)NC(=O)[C@H](C)NC(=O)[C@@H](CC(C)C)N(C)C(=O)[C@@H](C(C)C)NC(=O)[C@@H](CC(C)C)N(C)C(=O)CN(C)C(=O)[C@H](C(C)C)NC1=O (stereo partly specified)
> 10 µM

====

Target: UniProt:P21462
Sequence (whole entry): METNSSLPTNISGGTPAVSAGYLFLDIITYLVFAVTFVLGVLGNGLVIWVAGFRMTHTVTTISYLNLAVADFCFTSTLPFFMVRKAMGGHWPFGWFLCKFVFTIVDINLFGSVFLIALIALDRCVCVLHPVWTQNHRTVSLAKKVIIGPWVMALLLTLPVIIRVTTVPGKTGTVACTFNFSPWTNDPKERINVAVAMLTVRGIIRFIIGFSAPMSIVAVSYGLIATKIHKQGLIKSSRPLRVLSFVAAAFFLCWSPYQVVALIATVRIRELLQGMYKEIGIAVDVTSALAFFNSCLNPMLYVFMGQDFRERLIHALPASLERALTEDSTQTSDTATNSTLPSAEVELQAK
Assay: Inhibitory activity against Human formylpeptide receptor (FPR) of human leukemia HL-60 cells
Format: cell-based
Measurement kind: IC20 (µM)
Kindly answer with a numeric value in µM, unit omitted.

Check the records and state IC20 for `C/C=C/C[C@@H](C)[C@@H](O)[C@H]1C(=O)N[C@@H]([C@@H](C)O)C(=O)N(C)CC(=O)N(C)[C@H](CC(C)C)C(=O)N[C@@H](C(C)C)C(=O)N(C)[C@H](CC(C)C)C(=O)N[C@@H](C)C(=O)N[C@](O)(C(C)C)C(=O)N(C)[C@@H](CC(C)C)C(=O)N[C@@H](CC(C)C)C(=O)N(C)[C@@H](C(C)C)C(=O)N1C`
0.93

Could you now consider this next compound?
Check the records and state IC20 for `CC(C)C[C@@H]1C(=O)N[C@@H](C(C)C)C(=O)N(C)[C@H](CC(C)C)C(=O)N[C@@H](C)C(=O)N[C@H](C)C(=O)N(C)[C@@H](CC(C)C)C(=O)N(C)[C@@H](CC(C)C)C(=O)N(C)[C@@H](C(C)C)C(=O)N(C)[C@@H](CC(C)C)C(=O)N[C@@H](C(C)C)C(=O)N(C)CC(=O)N1C`
4.2

====

Readings of IC50 for the listed compounds
Target: fMet-Leu-Phe receptor (Homo sapiens, UniProt P21462)
Sequence (P21462 whole entry): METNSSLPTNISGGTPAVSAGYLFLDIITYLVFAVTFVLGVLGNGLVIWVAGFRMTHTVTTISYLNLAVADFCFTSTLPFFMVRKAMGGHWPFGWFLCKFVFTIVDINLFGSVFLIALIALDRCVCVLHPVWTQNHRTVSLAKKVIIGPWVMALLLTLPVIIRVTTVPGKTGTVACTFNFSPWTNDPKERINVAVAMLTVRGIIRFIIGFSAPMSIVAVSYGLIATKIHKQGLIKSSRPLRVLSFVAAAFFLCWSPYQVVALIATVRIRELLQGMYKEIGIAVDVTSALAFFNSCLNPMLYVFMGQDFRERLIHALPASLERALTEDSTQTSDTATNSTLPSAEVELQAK
Assay: Inhibitory activity against human formylpeptide receptor (FPR) of human leukemia HL-60 cells
Assay type: cell-based

Check the records and state IC50 for `C/C=C/C[C@@H](C)[C@@H](O)[C@H]1C(=O)N[C@@H](C(C)C)C(=O)N(C)CC(=O)N(C)[C@@H](CC(C)C)C(=O)N[C@@H](C(C)C)C(=O)N(C)[C@@H](CC(C)C)C(=O)N[C@@H](C)C(=O)N[C@H](C)C(=O)N(C)[C@@H](CC(C)C)C(=O)N[C@@H](CC(C)C)C(=O)N(C)[C@@H](C(C)C)C(=O)N1C`
> 3 µM

***
Check the records and state IC50 for `C/C=C/C[C@@H](C)[C@@H](O)[C@H]1C(=O)N[C@@H](CCC)C(=O)N(C)CC(=O)N(C)[C@@H](CC(C)C)C(=O)N[C@@H](CC(C)C)C(=O)N(C)[C@@H](CC(C)C)C(=O)N[C@@H](C)C(=O)N[C@H](C)C(=O)N(C)[C@@H](CC(C)C)C(=O)N(C)[C@@H](CC(C)C)C(=O)N(C)[C@@H](C(C)C)C(=O)N1C`
> 10 µM

Check the records and state IC50 for `C/C=C/C[C@@H](C)[C@@H](O)[C@H]1C(=O)N[C@@H](CC)C(=O)N(C)CC(=O)N(C)[C@@H](CC(C)C)C(=O)N[C@@H](C(C)C)C(=O)N(C)[C@@H](CC(C)C)C(=O)N[C@@H](C)C(=O)N[C@H](C)C(=O)N(C)[C@@H](CC(C)C)C(=O)N(C)[C@@H](CC(C)C)C(=O)N[C@@H](C(C)C)C(=O)N1C`
> 10 µM

====

Readings of log10 of IC20 for the listed molecules
Target: fMet-Leu-Phe receptor (Homo sapiens)
Sequence (whole entry): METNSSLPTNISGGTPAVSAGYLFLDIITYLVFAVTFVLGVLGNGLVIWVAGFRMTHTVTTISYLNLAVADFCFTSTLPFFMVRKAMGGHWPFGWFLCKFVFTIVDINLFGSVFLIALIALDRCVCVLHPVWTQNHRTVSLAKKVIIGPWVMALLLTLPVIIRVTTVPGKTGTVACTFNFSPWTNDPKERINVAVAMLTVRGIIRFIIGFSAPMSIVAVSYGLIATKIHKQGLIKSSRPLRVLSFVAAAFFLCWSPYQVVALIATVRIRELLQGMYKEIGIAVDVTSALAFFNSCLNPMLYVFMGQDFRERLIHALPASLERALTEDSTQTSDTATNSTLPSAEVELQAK
Assay: Inhibitory activity against Human formylpeptide receptor (FPR) of human leukemia HL-60 cells
Format: cell-based
Kindly note that the scale is log10 and the underlying IC20 is in nM.

The cases that follow already have their log10 of IC20 on record.
Check the records and state log10 of IC20 for `C/C=C/C[C@@H](C)[C@@H](O)[C@H]1C(=O)N[C@@H](CC)C(=O)N(C)CC(=O)N(C)[C@H](CC(C)C)C(=O)N[C@H](C(C)C)C(=O)N[C@@H](CC(C)C)C(=O)N[C@@H](C)C(=O)N[C@H](C)C(=O)N(C)[C@@H](CC(C)C)C(=O)N[C@@H](CC(C)C)C(=O)N(C)[C@@H](C(C)C)C(=O)N1C`
2.57

Check the records and state log10 of IC20 for `C/C=C/C[C@@H](C)[C@@H](O)[C@H]1C(=O)N[C@@H](CCC)C(=O)N(C)CC(=O)N(C)[C@H](CC(C)C)C(=O)N[C@@H](CC(C)C)C(=O)N(C)[C@H](CC(C)C)C(=O)N[C@@H](C)C(=O)N[C@H](C)C(=O)N(C)[C@@H](CC(C)C)C(=O)N(C)[C@@H](CC(C)C)C(=O)N(C)[C@@H](C(C)C)C(=O)N1C`
3.95

Check the records and state log10 of IC20 for `C/C=C/C[C@@H](C)[C@@H](O)[C@H]1C(=O)N[C@@H](CC)C(=O)N(C)CC(=O)N(C)[C@H](CC(C)C)C(=O)N[C@H](C(C)C)C(=O)N(C)[C@H](CC(C)C)C(=O)N[C@@H](C)C(=O)N[C@H](C)C(=O)N(C)[C@@H](CC(C)C)C(=O)N[C@@H](CC(C)C)C(=O)N(C)[C@@H](C(C)C)C(=O)N1C`
2.81

Check the records and state log10 of IC20 for `C/C=C/C[C@@H](C)[C@@H](O)[C@H]1C(=O)N[C@@H]([C@@H](C)O)C(=O)N(C)CC(=O)N(C)[C@H](CC(C)C)C(=O)N[C@@H](CC(C)C)C(=O)N(C)[C@H](CC(C)C)C(=O)N[C@@H](C)C(=O)N[C@](O)(C(C)C)C(=O)N(C)[C@@H](CC(C)C)C(=O)N[C@@H](CC(C)C)C(=O)N(C)[C@@H](C(C)C)C(=O)N1C`
2.30

***
Check the records and state log10 of IC20 for `CC/C=C/C[C@@H](C)[C@@H](O)[C@H]1C(=O)N[C@@H](CC)C(=O)N(C)CC(=O)N(C)[C@@H](Cc2ccccc2)C(=O)N[C@H](C(C)C)C(=O)N(C)[C@H](CC(C)C)C(=O)N[C@@H](C)C(=O)N[C@H](C)C(=O)N(C)[C@@H](CC(C)C)C(=O)N(C)[C@@H](CC(C)C)C(=O)N(C)[C@@H](C(C)C)C(=O)N1C`
3.60

Check the records and state log10 of IC20 for `C/C=C/C[C@@H](C)C[C@H]1C(=O)N[C@@H](CC)C(=O)N(C)CC(=O)N(C)[C@H](CC(C)C)C(=O)N[C@H](C(C)C)C(=O)N(C)[C@H](CC(C)C)C(=O)N[C@@H](C)C(=O)N[C@H](C)C(=O)N(C)[C@@H](CC(C)C)C(=O)N(C)[C@@H](CC(C)C)C(=O)N(C)[C@@H](C(C)C)C(=O)N1C`
3.38
